Source listed as patent US20240043507A1.

- assayed_system: spike protein of SARS-CoV-2 strain Victoria (SARS-CoV-2/human/AUS/VIC01/2020) (SARS-CoV-2, UniProt P0DTC2 14-1273)
- run_description: cell-based or functional assay
Each entry below carries its reported IC50 (FRNT, live virus neutralisation).

# binder, units_label, IC50 (FRNT, live virus neutralisation)
records = [
    ("antibody 269 (antibody, V domains shown) VH: QVQLVESGGGLIQPGGSLRLSCAASGLTVNRNYMSWIRQAPGKGLEWVSVIYSGGSTFYADSVKGRFTISRDNSKNTLSLQMNSLRAEDTAIYYCARDFYEGSFDIWGQGTMVTVSS VL: AIQLTQSPSFLSASIGDRVTITCRASQGISSYLAWYQQKPGKAPKLLIYAASTLQSGVPSRFSGSGSGTEFTLTISSLQPEDFASYYCQQLNSYPAPVFGPGTKVDIK", "µg/mL", 0.03),
    ("antibody 150 (antibody, V domains shown) VH: QVQLVESGGGLIQPGGSLRLSCAASGVTVSSNYMSWVRQAPGKGLEWVSIIYSGGTTYYADSVKGRFTISRDSSMNTLYLQMNSLRAEDTAVYYCARDLMVYGIDVWGQGTTVTVSS VL: EIVMTQSPSSLSASVGDRVTITCRASQGISSYLAWYQQKPGKAPKLLIYAASTLQSGVPSRFSGSGSGTDFTLTISSLQPEDFATYYCQQLDSYPPGYTFGQGTKVDIK", "µg/mL", 0.012),
    ("antibody 318 (antibody, V domains shown) VH: QVQLVQSGPEVKKPGTSVKVSCKASGFTLTSSAMQWVRQARGQRLEWIGWIVVGSGNTNYAQKFQERVTITRDMSTSTAYMELSSLRSEDTAVYYCAAGRGYNSDFDYWGQGTLVTVSS VL: AIRMTQSPGTLSLSPGERATLSCRASQSVSSSYLAWYQQRPGQAPRLLIYGTSSRATGIPDRFSGSGSGTDFTLTISRLEPEDFAVYYCQQYGYSVYTFGQGTKVDIK", "µg/mL", 0.029),
    ("antibody 165 (antibody, V domains shown) VH: QVQLVQSGPEVKKPGTSVKVSCKASGFTFTSSAVQWVRQARGQRLEWIGWIVVGSGNTNYAQKFQESVTITRDMSTSTAYMELSSLRSEDTAVYYCAAPHCIGGSCHDAFDIWGQGTMVTVSS VL: DIVMTQSPGTLSLSPGERATLSCRASQSVRSSYLAWYQQKPGQAPRLLIYGASRRGTGIPDRFSGSGSGTDFTLTISRLEPEDFAVYYCQQYGSSPWTFGQGTKVEIK", "µg/mL", 0.034),
    ("antibody 278 (antibody, V domains shown) VH: QVQLVQSGAEVKKPGASVKVSCKASGYIFIRYGISWVRQAPGQGLEWMGWISANNGYTNYAQKLQGRVTMTTDTSTSTAYMELRSLRSDDTAVYYCARDGGILTGYLDYFDHWGQGTLVTVSS VL: DIQMTQSPSSLSASVGDRLTITCRASQSIASYLNWYQQKPGKAPKLLIYAASSLQSGVPSRFSGSGSGTDFTLTISSLQPEDFATYHCQQSYSTLGITFGPGTKVDIK", "µg/mL", 0.014),
    ("antibody 58 (antibody, V domains shown) VH: QVQLVESGGGLVQPGRSLRLSCAASGFTFDDYAMHWVRQPPGKGLEWVSGVSWNSGTIGYADSVKGRFIISRDNAKNSLYLQMNSLKAEDTALYYCAREVGGTFGVLISREGGLDYWGQGTLVTVSS VL: SYELTQPPSVSVAPGQTARITCGGNTIGSKSVHWYQQRPGQAPVLVVYDDSDRPSGIPERFSGSNSGNTATLTISRVEAGDEADYYCQVWDSSSDRVVFGGGTKLTVL", "µg/mL", 0.041),
]
